Cited source: patent US20170313756A1

Consider the following binders; for each one, report its EC50, cAMP in B16-F1 cells.
target: mouse MC1R (on murine B16-F1 melanoma cells) (mouse, UniProt Q01727 1-315); experiment: cell-based or functional assay
Sequence (Q01727 whole entry): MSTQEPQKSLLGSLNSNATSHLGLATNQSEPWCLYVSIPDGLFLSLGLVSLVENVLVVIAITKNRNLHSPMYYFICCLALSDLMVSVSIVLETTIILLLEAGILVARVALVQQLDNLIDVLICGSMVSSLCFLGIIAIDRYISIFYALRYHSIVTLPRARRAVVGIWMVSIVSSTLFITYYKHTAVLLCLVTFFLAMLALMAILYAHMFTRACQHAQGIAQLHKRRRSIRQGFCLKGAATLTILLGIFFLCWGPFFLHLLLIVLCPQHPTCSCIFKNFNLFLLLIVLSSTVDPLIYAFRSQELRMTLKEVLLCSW
Record the value in nM, omitting the unit from your answer.

Lab note: measured EC50, cAMP in B16-F1 cells of VPKGWRFHEMSYS (N-terminal acetyl (Ac); C-terminal amide; D-isomers at all residues except Gly 4) [retro-inverso α-MSH] was 9700

The value of EC50, cAMP in B16-F1 cells measured for the binder VPKGWRXHEMSYS (N-terminal acetyl (Ac); C-terminal amide; D-cyclohexylalanine (D-Cha) at 7; D-isomers at all residues except Gly 4) [peptide 869] turned out to be 14

EC50, cAMP in B16-F1 cells in this record for VPKGWRFREMSYS (N-terminal acetyl (Ac); C-terminal amide; D-isomers at all residues except Gly 4) [peptide 872] : 2000

Briefly, EC50, cAMP in B16-F1 cells measured for VPKGWRFHEMSYS (N-terminal acetyl (Ac); C-terminal amide; L-His at 8; D-isomers at all other residues except Gly 4) [peptide 895] : 300
